Answer each item with its documented D2/D3.
Target: human dopamine D3 receptor (Homo sapiens (Human), UniProt P35462)
Sequence (P35462 whole entry): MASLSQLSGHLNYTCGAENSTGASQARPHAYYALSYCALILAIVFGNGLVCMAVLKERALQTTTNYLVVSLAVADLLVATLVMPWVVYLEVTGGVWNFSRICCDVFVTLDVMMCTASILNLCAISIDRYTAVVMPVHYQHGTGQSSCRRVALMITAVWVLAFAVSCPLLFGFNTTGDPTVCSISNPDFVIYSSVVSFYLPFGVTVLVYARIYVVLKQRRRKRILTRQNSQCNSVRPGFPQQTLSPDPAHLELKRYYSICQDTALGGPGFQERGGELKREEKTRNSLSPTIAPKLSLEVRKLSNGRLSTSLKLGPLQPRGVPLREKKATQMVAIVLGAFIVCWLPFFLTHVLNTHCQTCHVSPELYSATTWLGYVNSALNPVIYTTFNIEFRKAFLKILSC
Assay: Human D2-like receptor competition binding in HEK cells, D3
Conditions: ratio of Ki at D2 over Ki at D3
Numbers only.

Below, each entry is followed by its recorded D2/D3 result.
- COMPOUND: "O=C(NCCC(O)CN1CCN(c2cccc(Cl)c2Cl)CC1)c1cc2ccccc2o1 (centres unmarked) [Compound 42]"
  D2/D3: 188
- COMPOUND: "COc1ccccc1N1CCN(CC(O)CCNC(=O)c2cc3cc(F)ccc3o2)CC1 (centres unmarked) [Compound 47]"
  D2/D3: 276
- COMPOUND: "CC(=O)OC(CCNC(=O)c1ccc(-c2ccccn2)cc1)CN1CCN(c2cccc(Cl)c2Cl)CC1 (centres unmarked) [Compound 20]"
  D2/D3: 11
- COMPOUND: "Cc1cccc(-c2ccc(C(=O)NC/C=C/CN3CCN(c4cccc(Cl)c4Cl)CC3)cc2)n1 [Compound 10]"
  D2/D3: 75
- COMPOUND: "COc1ccc2oc(C(=O)NCCC(O)CN3CCN(c4cccc(Cl)c4Cl)CC3)cc2c1 (centres unmarked) [Compound 48]"
  D2/D3: 185

Below are 3 compounds. Give each one its D2/D3.
1. O=C(NC/C=C/C[N+]1([O-])CCN(c2cccc(Cl)c2Cl)CC1)c1ccc(-c2ccccn2)cc1 [Compound 13]
2. COc1ccccc1N1CCN(CC(O)CCNC(=O)c2ccc(-c3ccccn3)cc2)CC1 (centres unmarked) [Compound 18]
3. O=C(NCCC(O)CN1CCN(c2cccc(Cl)c2Cl)CC1)c1ccc2c(c1)Cc1ccccc1-2 (centres unmarked) [Compound 17]

1: 24; 2: 101; 3: 177

Below are 6 compounds. Give each one its D2/D3.
1. O=C(NCC(O)CCN1CCN(c2cccc(Cl)c2Cl)CC1)c1ccc(-c2ccccn2)cc1 (centres unmarked) [Compound 21]
2. COc1ccccc1N1CCN(CC(O)CCNC(=O)c2cc3ccccc3[nH]2)CC1 (centres unmarked) [Compound 35]
3. COc1ccccc1N1CCN(CC(O)CCNC(=O)c2cc3ccccc3s2)CC1 (centres unmarked) [Compound 39]
4. O=C(NCC(O)CCN1CCN(c2cccc(Cl)c2Cl)CC1)c1cc2ccccc2[nH]1 (centres unmarked) [Compound 36]
5. COc1ccccc1N1CCN(CCC(O)CNC(=O)c2ccc3c(c2)Cc2ccccc2-3)CC1 (centres unmarked) [Compound 23]
6. O=C(NCCC(O)CN1CCN(c2cccc(Cl)c2Cl)CC1)c1cc2cc(I)ccc2o1 (centres unmarked) [Compound 45]

1: 57; 2: 181; 3: 73; 4: 109; 5: 53; 6: 200

Below are 2 compounds. Give each one its D2/D3.
1. COc1ccccc1N1CCN(CCC(O)CNC(=O)c2cc3ccccc3[nH]2)CC1 (centres unmarked) [Compound 37]
2. COc1ccccc1N1CCN(CC(O)CCNC(=O)c2cc3cc(I)ccc3o2)CC1 (centres unmarked) [Compound 44]

[105, 71]

Return the recorded D2/D3 value; entry: O=C(NCCC(O)CN1CCN(c2cccc(Cl)c2Cl)CC1)c1cc2cc(F)ccc2o1 (centres unmarked) [Compound 46]
149

---

Target: serotonin 5HT2c receptor (Homo sapiens (Human))
Sequence (P28335 33-458): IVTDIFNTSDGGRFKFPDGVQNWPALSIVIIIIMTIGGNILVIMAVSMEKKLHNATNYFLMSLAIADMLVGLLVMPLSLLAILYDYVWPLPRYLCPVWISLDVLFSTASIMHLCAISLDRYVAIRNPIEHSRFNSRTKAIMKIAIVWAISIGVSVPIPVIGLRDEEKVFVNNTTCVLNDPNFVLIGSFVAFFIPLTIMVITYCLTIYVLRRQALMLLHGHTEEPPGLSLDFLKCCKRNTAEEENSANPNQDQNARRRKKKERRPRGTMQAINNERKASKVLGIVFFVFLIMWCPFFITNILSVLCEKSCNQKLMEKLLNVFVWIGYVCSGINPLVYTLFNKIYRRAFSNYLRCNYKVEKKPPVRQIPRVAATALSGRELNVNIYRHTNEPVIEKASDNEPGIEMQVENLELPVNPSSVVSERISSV
Assay: Serotonin receptor binding, 5HT2c
Details: ratio of affinities, 5HT2c over D3
RECORDED_METRIC: 5HT2c/D
Answers are plain numbers.

- MOLECULE: "O=C(NCC(O)CCN1CCN(c2cccc(Cl)c2Cl)CC1)c1ccc(-c2ccccn2)cc1 (stereo not shown)"
  QUANTITATIVE_READOUT: 50
- MOLECULE: "O=C(NCCC(O)CN1CCN(c2cccc(Cl)c2Cl)CC1)c1ccc2c(c1)Cc1ccccc1-2 (stereo not shown)"
  QUANTITATIVE_READOUT: 1572
- MOLECULE: "Cc1cccnc1-c1ccc(C(=O)NC/C=C/CN2CCN(c3cccc(Cl)c3Cl)CC2)cc1"
  QUANTITATIVE_READOUT: 19

Return the recorded 5HT2c/D value; entry: CC(=O)OC(CCNC(=O)c1ccc(-c2ccccn2)cc1)CN1CCN(c2cccc(Cl)c2Cl)CC1 (stereo not shown)
7
